Here, molecules appear alongside Ki reported for 5-hydroxytryptamine receptor 6 (Rattus norvegicus, UniProt P31388) in the literature.
Sorting guide: entries reporting Ki beneath 6 nM go in the Y pile, the rest go in the N pile.

Sample answers from the record:
COc1ccc(NS(=O)(=O)c2ccc(I)cc2)cc1N1CCN(C)CC1 | Y
CN1CCN(C2=Nc3ccccc3Oc3ccc(Cl)cc32)CC1 | N
O=C(c1ccc(F)cc1)C1CCN(CCn2c(=O)[nH]c3ccccc3c2=O)CC1 | N
COc1ccc(NS(=O)(=O)c2ccc(Br)cc2)cc1N1CCN(C)CC1 | Y
Nc1ncnc2nc(-c3ccc(N4CCOCC4)nc3)cc(-c3cccc(Br)c3)c12 | N
CCCN(C(C)C)[C@H]1COc2cccc(C(=O)NC(C)C)c2C1 | N
OCCN1CCN(CCCN2c3ccccc3Sc3ccc(Cl)cc32)CC1 | N
CNc1cc(NS(=O)(=O)c2ccc(N)cc2)nc(NC)n1 | N
NC(=O)c1ccc(F)c2c1CC(N(C1CCC1)C1CCC1)CO2 (stereo not given) | N

Problem: Please let me know if Clc1ccc2c(c1)C(N1CCNCC1)=Nc1ccccc1O2 shows Ki below 6 nM.
Solution: N
